Assay: In vitro cytotoxicity, HeLa
Type: cell-based, human
Settings: human, HeLa cells (human cervical epidermoid carcinoma cell line)
Note to self: use true (1) only for IC50 readings below 40 µM; a reading exactly at 40 µM still gets false (0).

Compound | Group
C/C=C/[C@@H]1C=C[C@@H]2C[C@H](C)CC[C@H]2[C@]1(C)C(=O)C1=C(O)[C@H](CO)N(C)C1=O [Compound 1, equisetin] | true (1)
CC1=C[C@@H]2C[C@@H](C)CC[C@@H]2[C@@](C)(C(=O)C2=C(O)[C@@H](CO)NC2=O)[C@@H]1/C=C/C=C/C(=O)O [Compound 8] | false (0)
C/C=C/C=C/[C@H]1C(C)=C[C@H]2C[C@@H](C)CC[C@@H]2[C@@]1(C)C(=O)C1=C(O)[C@@H](CO)N(C)C1=O [Compound 2, phomasetin] | true (1)
C/C=C/C=C/[C@@H]1C(C)=C[C@@H]2C[C@@H](C)CC[C@H]2[C@]1(C)C(=O)C1=C(O)C(CO)NC1=O (some centres unmarked) [Compound 6] | false (0)
C/C=C/C=C/[C@@H]1C(C)=C[C@@H]2C[C@@H](C)CC[C@@H]2[C@@]1(C)C(=O)C1=C(O)[C@@H](CO)NC1=O [Compound 4, N-demethyl-cis-phomasetin] | false (0)
C/C=C/[C@H]1C=C[C@H]2C[C@H](C)CC[C@H]2[C@]1(C)C(=O)C1=C(O)[C@H](CO)N(C)C1=O [Compound 3, cis-equisetin] | false (0)
CC1=C[C@H]2C[C@@H](C)CC[C@@H]2[C@@](C)(C(=O)C2=C(O)[C@@H](CO)N(C)C2=O)[C@H]1/C=C/C=C/CO [Compound 7] | true (1)
